B1: scFv; the commonest letter at each place (parent)
chain 1: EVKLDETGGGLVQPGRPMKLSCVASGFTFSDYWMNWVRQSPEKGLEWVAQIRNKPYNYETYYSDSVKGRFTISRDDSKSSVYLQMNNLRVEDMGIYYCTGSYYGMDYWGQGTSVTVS
chain 2: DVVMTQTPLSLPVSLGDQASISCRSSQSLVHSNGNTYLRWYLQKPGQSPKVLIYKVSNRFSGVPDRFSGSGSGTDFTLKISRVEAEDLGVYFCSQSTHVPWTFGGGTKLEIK

- Variants of: B1
- assay_comment: Kd (Tite-Seq)
- applied_conditions: with fluorescein; format: scFv 4-4-20, heavy + light
pKd: −log10 of the molar value.
parameter_measured: pKd

>>> df
         mutation_list  experimental_result
0  chain 1 G100S Y107D               ≤ 5.00

// sample chain 1 G100W W108V , its pKd was 6.82

// sample chain 1 W33S N35I , its pKd was ≤ 5.00

// sample chain 1 S30N N35T , its pKd was ≤ 5.00

// sample chain 1 G100R G104S , its pKd was ≤ 5.00

// sample chain 1 S30H D31S N35P , its pKd was ≤ 5.00

// sample chain 1 G100W S101L , its pKd was ≤ 5.00

// sample chain 1 S30N V37W , its pKd was ≤ 5.00

// sample chain 1 S101G M105E D106R , its pKd was ≤ 5.00

// sample chain 1 G100S Y103H , its pKd was 7.61
